Known melting point of a selection of compounds

Example results:
Cc1cccc(N2CCCC2=O)c1CNc1cccn2c(C)c(C)nc12 = 138 to 141 °C
O=C1Nc2ccc(-c3ccc(F)c(Cl)c3)cc2C12CCCC2 = 202 to 204 °C
c1ccc(N=C(Nc2ccccc2)c2ccccc2)cc1 = 143 to 144 °C
CC(=O)N[C@@H](CSC(=O)C(C)C)C(=O)NCCSC(=O)C(C)C = 99 to 100 °C
COc1cc(OC)c(-c2nc(N3CC(C)NC(C)C3)c3c(C)c(C#N)sc3n2)cc1OC (centres undefined) = 186 to 188 °C

For record O[C@@H](COc1cccc(-c2noc3ccsc23)c1)CN1CCN(c2ccccc2C(F)(F)F)CC1 the listed melting point is 77 to 79 °C

For record C[C@@H](NS(C)(=O)=O)[C@](O)(Cn1cncn1)c1ccc(Cl)cc1Cl (relative stereo) the listed melting point is 177 to 180 °C

For record COc1ccc(-c2c(N)oc3c(C(C)(C)C)cc(C(C)(C)C)cc23)cc1OC the listed melting point is 172 to 174 °C

For record Cc1ccccc1S(=O)(=O)NC(=O)CCSC1c2ccccc2COc2ccc(OCc3ccc4ccc(Cl)cc4n3)cc21 (centres undefined) the listed melting point is 87 to 90 °C

----------
Known melting point of a selection of compounds

Example results:
CC(C)(C)c1cc(C(=O)Nc2ccc([N+](=O)[O-])cc2)cc(C(C)(C)C)c1O = 277 to 278 °C
CCCCCCCCCC[C@@]1(C)OO[C@@H]2C[C@H]1CC(=O)[C@@H]2C = 40 °C
CC(C)(C)C(Br)(Br)C(=O)O = 241 to 243 °C
COc1ccc(-c2nc(Sc3cccc(OC)c3)[nH]c2-c2ccc(OC)cc2)cc1 = 101 °C

For record Cc1ccc(C=Cc2ccc(N(c3ccccc3)c3ccc4c5c(cccc35)CC4)cc2)cc1 the listed melting point is 148 to 149 °C

For record CC(=O)Nc1sc([N+](=O)[O-])cc1C(=O)O the listed melting point is 238 to 240 °C

For record CS(=O)c1ccc(-n2cnnn2)cc1 (stereo unspecified) the listed melting point is 175 to 176 °C

For record Cc1ccc(CCC(=O)O)cc1C the listed melting point is 82 °C

For record Cc1noc2cc(OCCCNCC3CCc4ccc(O)cc4O3)ccc12 (stereo unspecified) the listed melting point is 169 to 170 °C

For record Nc1nnc(N2CCN(Cc3ccncc3)CC2)[nH]1 the listed melting point is 191 to 193 °C

For record O=C(O)c1ccc(OCCCN(CCO)c2ccc(Cl)cc2)cc1 the listed melting point is 120 to 122 °C

----------
Known melting point of a selection of compounds

COC1=C(OC)C(=O)C2=C(CCC(CCOc3ccc(C#N)cc3)CC2)C1=O = 105 to 107 °C
Cc1nn(CCOc2ccc(C=C3SC(=O)NC3=O)cc2)c(=O)c2ccccc12 = 202 °C
CC(C)CC(O)(Cn1cncn1)c1ccccc1 (stereo not given) = 94 to 95 °C
Cc1cc(Cl)cc(C(=O)NC(C)C)c1NC(=O)c1cc(Br)nn1-c1ncccc1Cl = 159 to 161 °C

For record O=C(O)c1ccc(OCCC2CC(=O)N(c3ccc(Cl)cc3)C2)cc1 (stereo not given) the listed melting point is 228 to 229 °C
